These entries and their values trace back to PubChem BioAssay (EPA / NIEHS).

- Read-out: Apoptosis regulator Bcl-2 (Homo sapiens) (UniProt P10415)
- Sequence (P10415 whole entry, looked up): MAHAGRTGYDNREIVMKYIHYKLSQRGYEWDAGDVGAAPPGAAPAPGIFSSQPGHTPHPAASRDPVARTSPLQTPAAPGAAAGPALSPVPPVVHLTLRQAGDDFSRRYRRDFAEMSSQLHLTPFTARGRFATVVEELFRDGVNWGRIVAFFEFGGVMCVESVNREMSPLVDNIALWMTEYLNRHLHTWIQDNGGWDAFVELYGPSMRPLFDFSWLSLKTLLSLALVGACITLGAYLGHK
- assayDetails: LTEA_HepaRG_BCL2: Life Technologies and Expression Analysis (LTEA) Assay for Bcl-2 gene using HepaRG (AID 2283475);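 further: BCL2 transcript by TaqMan qRT-PCR normalised to ACTB GAPDH and POLR2A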
- measurementSetup: mRNA level, 48 h; actives raise or lower the signal
Calls of active or inactive are those of the source. How the source made its calls: active means hit-call score of the fitted dose curve at least 0.9, where 1 is the maximum; inactive means score below 0.9.
Field 'call' accepts TRUE for active, FALSE for inactive

For `c1ccc2c(c1)oc1ccccc12` , which call appears in the assay record?
FALSE

Which outcome did this test record for the molecule `Cn1cc(-c2ccccc2)c(=O)c(-c2cccc(C(F)(F)F)c2)c1` ?
FALSE

Write down the call the test reported for this molecule. Item: `N#CC(Br)(Br)C(N)=O`
FALSE

Record lookup: outcome of this test for `CC(C)N(Cc1ccccc1)C(=O)C(C)(C)C` ?
FALSE

Kindly provide the recorded test outcome for the following molecule: `Cc1ccc(N)c(N)c1`
FALSE

Could you kindly confirm the outcome this assay logged for `O=Cc1ccco1` ?
FALSE

For `CN(C)C(=O)Nc1ccc(Cl)cc1` , which call appears in the assay record?
FALSE

Assay outcome for CCOc1cccc(C2(N3CCN(c4ccccc4)CC3)CCC(C)CC2)c1 (configuration not stated) : what was it?
FALSE

Hello, I am checking results. What call was entered for `COC(=O)c1ccccc1N` ?
FALSE

Call for entry `O=C1CCCO1` :
FALSE

Any idea what this test logged for `O=P(OCCCl)(OCCCl)OCCCl` ?
FALSE

Status in this test for `Clc1ccc(C(c2ccc(Cl)cc2)C(Cl)(Cl)Cl)cc1` ?
TRUE

Hi, sorry to bother you, what did the test record for `COC(=O)Nc1nc2ccccc2[nH]1` ?
FALSE

For `C[C@]12C=CC3=C4CCC(=O)C=C4CC[C@H]3[C@@H]1CC[C@@H]2O` , what call appears in the results of this test?
TRUE

Please share the test call associated with `ClC1=C(Cl)[C@]2(Cl)[C@H]3[C@H]([C@@H]4C=C[C@H]3C4)[C@@]1(Cl)C2(Cl)Cl` .
FALSE

What was the test verdict on `Nc1ccc(Cc2ccc(N)cc2)cc1` ?
FALSE

In this assay, the call recorded for O=C(O)C1C2CCC(O2)C1C(=O)O (configuration not stated) was what?
FALSE

Field: outcome | Entry: `CNC(=O)Oc1cccc2c1OC(C)(C)C2`
FALSE

// return assay outcome for `CN(C)c1ccc(C(=O)c2ccc(N(C)C)cc2)cc1`
TRUE

# lookup: test call for `O=C(N[C@H](c1ccccc1)[C@@H]1CN2CCC1CC2)c1c(Cl)ccc(C(F)(F)F)c1Cl`
FALSE

Lab log entry: `CCCCCCCCn1sccc1=O` — outcome as called in the assay?
FALSE

Hi, sorry to bother you, what did the test record for `CCCCCCCCOC(=O)c1ccc(C(=O)OCCCCCCCC)c(C(=O)OCCCCCCCC)c1` ?
FALSE

Could you please tell me the result logged for `Nc1ccc([N+](=O)[O-])cc1` in this assay?
FALSE

Each molecule tested received a call. Report the one for c1ccc(C2CO2)cc1 (configuration not stated) .
FALSE

Could you check what this test reported for `[Cl-].[Cl-].[Hg+2]` ?
FALSE

I'd appreciate the recorded outcome for `Oc1ccc2ccc3cccc4ccc1c2c34` from this test.
FALSE

Hello, I am checking results. What call was entered for `CCNS(=O)(=O)C(F)(F)C(F)(F)C(F)(F)C(F)(F)C(F)(F)C(F)(F)C(F)(F)C(F)(F)F` ?
FALSE
